molecular target: Kv1.3 (Homo sapiens (Human)); assay: Patch-clamp assay for inhibitory activity on Kv1.3 (whole cell patch-clamp recording); conditions: n≥2 per concentration
Sequence (P22001 whole entry): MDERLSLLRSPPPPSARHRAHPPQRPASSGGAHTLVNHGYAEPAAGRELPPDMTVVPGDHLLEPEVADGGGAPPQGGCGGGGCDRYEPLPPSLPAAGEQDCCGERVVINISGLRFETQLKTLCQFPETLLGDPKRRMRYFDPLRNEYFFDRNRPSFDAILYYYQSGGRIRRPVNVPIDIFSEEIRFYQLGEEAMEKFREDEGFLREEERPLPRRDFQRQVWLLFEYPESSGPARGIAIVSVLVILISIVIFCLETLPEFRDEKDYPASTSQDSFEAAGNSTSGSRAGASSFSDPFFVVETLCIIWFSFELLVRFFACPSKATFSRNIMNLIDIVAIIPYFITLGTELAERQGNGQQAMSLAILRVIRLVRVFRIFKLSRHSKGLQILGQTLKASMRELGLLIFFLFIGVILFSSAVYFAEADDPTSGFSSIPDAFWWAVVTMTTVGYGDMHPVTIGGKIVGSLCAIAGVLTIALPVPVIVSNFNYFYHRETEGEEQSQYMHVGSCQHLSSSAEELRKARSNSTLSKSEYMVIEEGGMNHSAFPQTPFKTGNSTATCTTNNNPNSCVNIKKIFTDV
pIC50: −log10 of the molar value.

smiles.str: Cc1c(-c2ccccc2)c2cc3c(C)coc3nc2oc1=O
pIC50: ≥ 6.30
--
smiles.str: Cc1csc2c(C)c3oc(=O)cc(-c4ccccc4)c3cc12
pIC50: 5.82 to 6.30
--
smiles.str: Cc1noc2c(C)c3[nH]c(=O)cc(-c4ccccc4)c3cc12
pIC50: 5.82 to 6.30
--
smiles.str: Cc1c(C#N)oc2c(C)c3oc(=O)cc(-c4ccccc4)c3cc12
pIC50: 5.52 to 5.82
--
smiles.str: Cc1c(-c2ccccc2)c2cc3c(C)noc3c(C)c2n(C)c1=O
pIC50: 5.82 to 6.30
--
smiles.str: Cc1c(-c2ccccc2)c2cc3c(C)coc3c(C)c2n(C)c1=O
pIC50: ≥ 6.30
--
smiles.str: Cc1c(-c2ccccc2)c2cc3c(C)noc3c(C)c2[nH]c1=O
pIC50: ≥ 6.30
--
smiles.str: Cc1c(-c2ccccc2)c2cc3c(C)noc3c(C)c2oc1=O
pIC50: 5.82 to 6.30
--
smiles.str: Cc1c(-c2ccccc2)c2cc3c(C)coc3nc2n(C)c1=O
pIC50: ≥ 6.30
--
smiles.str: Cc1c(-c2ccccc2)c2cc3c(C4CC4)coc3c(C)c2oc1=O
pIC50: 5.82 to 6.30
--
smiles.str: COc1ncccc1-c1c(C)c(=O)oc2c(C)c3occ(C)c3cc12
pIC50: 5.82 to 6.30
--
smiles.str: Cc1c(-c2ccccc2F)c2cc3c(C)coc3c(C)c2[nH]c1=O
pIC50: ≥ 6.30
--
smiles.str: COc1ncccc1-c1c(C)c(=O)n(C)c2c(C)c3occ(C)c3cc12
pIC50: 5.52 to 5.82
--
smiles.str: Cc1c(CN2CCOCC2)oc2c(C)c3oc(=O)cc(-c4ccccc4)c3cc12
pIC50: 5.52 to 5.82
--
smiles.str: Cc1c(N2CCOCC2)oc2c(C)c3oc(=O)cc(-c4ccccc4)c3cc12
pIC50: 5.52 to 5.82
--
smiles.str: Cc1ccccc1-c1cc(=O)oc2cc3occ(C)c3cc12
pIC50: 5.82 to 6.30
--
smiles.str: Cc1coc2c(C)c3[nH]c(=O)c(Br)c(-c4ccccc4)c3cc12
pIC50: ≥ 6.30
--
smiles.str: Cc1coc2c(C)c3oc(=O)cc(-c4ccccc4F)c3cc12
pIC50: ≥ 6.30
--
smiles.str: Cc1c(-c2ccccc2)c2cc3c(C)coc3c(C)c2oc1=O
pIC50: ≥ 6.30
--
smiles.str: Cc1ccccc1-c1cc(=O)oc2c(C)c3occ(C)c3cc12
pIC50: 5.82 to 6.30
--
smiles.str: Cc1coc2cc3oc(=O)cc(-c4cccc(Cl)c4)c3cc12
pIC50: 5.82 to 6.30
--
smiles.str: Cc1ccccc1-c1cc(=O)[nH]c2c(C)c3occ(C)c3cc12
pIC50: 5.52 to 5.82
--
smiles.str: COc1cccc(-c2c(C)c(=O)oc3c(C)c4occ(C)c4cc23)c1
pIC50: 5.82 to 6.30
--
smiles.str: Cc1coc2c(C)c3c(cc12)c(-c1ccccc1)cc(=O)n3C
pIC50: 5.52 to 5.82
